Would you kindly list kcat for each of these variants?
B1: glmS ribozyme (parent)
chain: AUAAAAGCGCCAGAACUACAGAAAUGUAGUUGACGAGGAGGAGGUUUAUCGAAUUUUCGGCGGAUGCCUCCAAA

# Variants of: B1
# experimentNotes: kcat; higher = faster cleavage; RNA array
# protocolConditions: with glucosamine-6-phosphate
This sample holds only a part of the variants without activity.
Give your result in s⁻¹ as a bare value.

Input AUAAAAGCGCCAGAACUACAGAAAUGUAGUUGACGAGGAGGAGGUUUAUGGAAUUCUCGGCGGAUGCCUCCAAA [C50G U56C] , output reported kcat.
1.76e-05

Name the recorded kcat of the item AUAAAAGCGCCGGAACUACAGAAAUGUAGGUGACGAGGAGGAGGUUUAUCGAAUUUUCGGCGGAUGCCUCCAAA [A12G U30G] in your answer.
8.75e-05

Supply measured kcat of AUAAAAGCGCCAGAAAUACAGAAAUGUAGUUGACGAGGAGGAGGGUUAUCGAAUUUUCGGCGGAUGCCUCCAAA [C16A U45G] in your reply.
0.000271

Identify measured kcat corresponding to AUAAAAGCGCCAGAACUACAGAAAUGUAGUUGACGAGGAGGAGGUUUUUCGAAUUUUCGGCGGAUGCCCCCAAA [A48U U69C]
0.000248

Fill in kcat for record AUAAAAGCGCCCGAACUACAGAAAUGUAGUUGACGAGGAGGAGGUUUAUCGAAGUUUCGGCGGAUGCCUCCAAA [A12C U54G]
0.0218

Identify measured kcat corresponding to AUAAAAGCGCCAGAACUACAGAAAUGUAGCUGACGAGGAGGAGGUUAAUCGAAUUUUCGGCGGAUGCCUCCAAA [U30C U47A]
0.000176

Please list kcat recorded for the variant AUAAAAGCGUCAGAGCUACAGAAAUGUAGUUGACGAGGAGGAGGUUUAUCGAAUUUUCGGCGGAUGCCUCCAAA [C10U A15G]
2.54e-05

For the variant AUAAAAGCGCCAGAACUACAGAAAUGUAGUUGACGAGGAGUAGGUUUAUCGAAUUUUCGGCGGAUGCCUCAAAA [G41U C71A] , report kcat.
0.000252

Dear colleague, please send me the reported kcat for AUAAAAGCGCCAGACCUACAGAAAUGUAGUUGACGAGGAGGAGGUUUAUCGAAUUUUCGGCGGAUGCCUGCAAA [A15C C70G] when you can.
7.11e-05

# return recorded kcat for entry AUAAAAGCGCCAGAACUACAGAAAUGUAGUUGACGAGGAGGAGGUUUAUCGGAUUUUCGGCGGAUGCCUGCAAA [A52G C70G]
6.89e-05

Please report kcat for the following variant: AUAAAAGCGCCAGAACUACAGAAAUGUAGUUGACGAGGAGGAGGUUUAUGGAAUUUACGGCGGAUGCCUCCAAA [C50G U57A]
7.3e-05

Report measured kcat; entry is AUAAAAGCGCCAGAACUACAGAAAUGUAGUUGACGAGGAGCUGGUUUAUCGAAUUUUCGGCGGAUGCCUCCAAA [G41C A42U]
4.23e-05

Answer with reported kcat of AUAAAAGCGCCAGAACUACAGAAAUGUAGUUGACGAGGGGGAGGUUUAUCGAAUUUUCGGCGGAUGCAUCCAAA [A39G C68A]
2.73e-05

Report measured kcat; entry is AUAAAAGCGCCAGAACUACAGAAAUGUAGUUUACGAGGAGAAGGUUUAUCGAAUUUUCGGCGGAUGCCUCCAAA [G32U G41A]
0.000221

For the variant AUAAAAGCGCCAGAAAUACAGAAAUGUAGUUGACGAGGAGGAGGUUUAUCGAAUUUUCGGCGGAUGCCCCCAAA [C16A U69C] , give its reported kcat.
0.00012

Consider the variant AUAAAAGCGCCAGAACUACAGAAAUGUAGUCGACGAGGAGGAGGUUUAUCGAAUAUUCGGCGGAUGCCUCCAAA [U31C U55A] and give its recorded kcat.
0.00809

Input AUAAAAGCGCCAGAACUACAGAAAUGUAAUUGACGAGGAGGAGGUUUUUCGAAUUUUCGGCGGAUGCCUCCAAA [G29A A48U] , output reported kcat.
0.000327

Quote kcat reported for AUAAAAGCGCCAGAACUACAGAAAUGUAGUUGACGAGGAGGAGGGUUAUCGAAUAUUCGGCGGAUGCCUCCAAA [U45G U55A] please.
0.00686
